tested on: U251 CNS; test: NCI-60 one-dose screen, 48 h (100 = growth as untreated, 0 = no growth, -100 = all killed); conditions: 10 µM unless noted
Compounds without any hit were thinned out: in the full panel of roughly 83,000, 20% have a hit.
Respond with TRUE for growth values of 40% and above, FALSE for values below.

In: Determine whether measured growth meets or exceeds 40% for "CCN1CCN(C(=O)[C@]23CC[C@@H](C)[C@H](C)[C@H]2C2=CC[C@@H]4[C@@]5(C)C/C(=C/c6cccc(OC)c6OC)C(=O)C(C)(C)[C@@H]5CC[C@@]4(C)[C@]2(C)CC3)CC1"
Out: FALSE

In: Entry "N#Cc1c(-c2ccc(O)cc2)c2c(N)nn(-c3ccccc3)c2[nH]c1=O" : is its growth no less than 40%?
Out: TRUE

In: // inclusive: growth at least 40%? input: "Cc1ccc(/C=C(\C#N)c2cc3ccccc3n2C)cc1"
Out: FALSE

In: Confirm if growth reported for the molecule "Cn1cc(-c2csc(-c3c[nH]c4ccc(F)cc34)n2)c2cccnc21" is 40% or above.
Out: FALSE

In: Record "Cn1c(=O)c2c(ncn2CCC(=O)Nc2ccc(F)cc2)n(C)c1=O" ; criterion: growth no lower than 40%. Met?
Out: TRUE

In: Does the molecule "N#C/C(=C\c1ccc(-c2cccc(C(F)(F)F)c2)o1)c1nc(-c2ccco2)cs1" have recorded growth that is 40% or more?
Out: TRUE

In: Is it the case that "N#C/C(=C\c1ccc(-c2ccccc2)o1)c1nc(-c2ccco2)cs1" has growth reaching or exceeding 40%?
Out: TRUE

In: I'd appreciate it if you could say whether "O=C1c2cc3c(cc2-c2c1c1ccc(F)cc1c(=O)n2CCCN1CCOCC1)OCO3" has growth at least equal to 40%.
Out: FALSE

In: Please indicate if the recorded growth for "Nc1c(C(=O)Nc2cccc(Br)c2)sc2nc3c(cc12)C(=O)CCC3" meets or exceeds 40%.
Out: FALSE

In: Confirm if growth reported for the molecule "COC(=O)[C@]12CC[C@@H](C(/C=C/c3cccnc3)=N/O)[C@@H]1[C@H]1CC[C@@H]3[C@@]4(C)CC(=C/c5cccnc5)/C(=N/O)C(C)(C)[C@@H]4CC[C@@]3(C)[C@]1(C)CC2" is 40% or above.
Out: TRUE

----------
Test system: SK-OV-3 ovarian
Test: NCI-60 one-dose screen, 48 h (100 = growth as untreated, 0 = no growth, -100 = all killed)
Details: 10 µM unless noted
Procedure: Growth inhibition of the SK-OV-3 human tumor cell line is measured as a screen for anti-cancer activity. Cells are grown in 96 well plates and exposed to the test compound for 48 hours. Compounds are tested at a single concentration, which is 10^-5 M for most compounds. The reported endpoint is percent growth (GI% or GIPRCNT), where numbers from 0 - 100% represent growth inhibition, and numbers from -100% - 0 represent cell death. For example, a value of 40 represents 60% growth inhibition. […]
Compounds without any hit were thinned out: in the full panel of roughly 83,000, 20% have a hit.
experimental readout: growth (%)
A number alone suffices; assume %.

In: Can you share its growth? I mean this compound: CCCC1CCCCN1C(=O)OCC(C)C (configuration not stated)
Out: 110

In: What growth value was documented for this compound, "Cc1nn(-c2ccc(Cl)cc2)c(=O)n1CCn1cnc2ccccc21" ?
Out: 113

In: What value of growth has been recorded for this entry: "OCC(CO)(CCl)CCl"
Out: 88.5

In: Record request: growth value, item "O=C1/C(=C\c2ccco2)SC(=S)N1CCc1ccc(O)cc1"
Out: 100

In: What value of growth has been recorded for this entry: CCC(CC)C(=O)OC(C)COc1ccc(C(C)(C)C)cc1 (configuration not stated)
Out: 102

In: For the compound shown here, "Cc1ccc(-c2ccc(Nc3ccccc3)nn2)cc1S(N)(=O)=O" , give the reported growth.
Out: 100

In: Bench note: what growth did "O=C(NO)c1ccc(Cn2c(=O)n(CCc3ccc(O)cc3)c(=O)c3ccccc32)cc1" show?
Out: 86.7

In: What value of measured growth is listed for "Clc1cc(Cl)cc(Nc2ccc3c(OCCCN4CCOCC4)cccc3n2)c1" ?
Out: 75.8

In: Would you mind telling me what growth value was observed for CC(=O)O[C@H]1CC[C@@]2(C)[C@@H](CC[C@@H]3[C@@H]2CC(=O)[C@@]2(C)[C@H]3C[C@@H](C3CCCC3=O)[C@@H]2C(C)=O)C1 (some centres not stated) ?
Out: 107

In: Give its growth value. Item: "Oc1ccccc1/C=N\NC(=S)Nc1ccc(F)cc1"
Out: 33.8

In: I have this compound here, "COc1ccccc1-n1cnc(N)c1C(=O)c1cc(OC)c(OC)c(OC)c1" , and I need its recorded growth.
Out: 48.2

In: Param item = "O=C(NCN1C(=O)c2cccc3cccc(c23)C1=O)N1CCC(Cc2ccccc2)CC1" ; retrieve measured growth.
Out: 91.3

In: What value of measured growth is listed for "COC(=O)[C@]12CC[C@@H](C)[C@H](C)[C@@H]1C1=CC[C@@H]3[C@@]4(C)C=C(O)C(=O)C(C)=C4CC[C@@]3(C)[C@]1(C)CC2" ?
Out: 61.7

In: Given the compound "CCN(CC)C(=O)CCCCCn1c2ccccc2c2c3c(c4c5ccccc5[nH]c4c21)C(=O)N(O)C3=O" , what is its reported growth?
Out: 79.5

In: Query: growth; subject: "O=C(N/N=C\c1c(O)ccc2ccccc12)C1CC1"
Out: 44.9

In: Field request: growth | item: "Nc1c(C(=O)Nc2c(Cl)cccc2Cl)sc2nc3c(cc12)C(=O)CCC3"
Out: 32.2

In: Value lookup for growth; key = "COc1ccc2c(c1)c(-c1nc(-c3c[nH]c4ncccc34)cs1)cn2C"
Out: 63.9

In: For "Cn1cc(-c2csc(-c3c[nH]c4ccccc34)n2)c2cccnc21" , what is its reported growth?
Out: 28.9

In: Which growth reading was recorded for the compound "O=S(=O)(NCCNc1cc(-c2cn(-c3ccccc3)nc2-c2cccc(O)c2)ccn1)c1ccc(C(F)(F)F)cc1" ?
Out: 54

In: Would you mind telling me what growth value was observed for "COc1ccc(NC(=O)c2ccoc2COc2ccccc2)cc1" ?
Out: 106

In: Please report the recorded growth for "Cc1cc(C=O)c(C)c2c1[nH]c1ccccc12" .
Out: 106

In: What value of growth has been recorded for this entry: "COc1cc(-c2c(C#N)c(-c3cccs3)nc3c2c(-c2ccccc2)nn3-c2ccccc2)ccc1O"
Out: 82.7

In: Which growth value belongs to "N#C/C(=C\c1ccc(-c2ccccc2)o1)c1nc(-c2ccco2)cs1" ?
Out: 97.2

In: # input compound: "Cn1cc(-c2nc(-c3cn(C)c4ncccc34)cs2)c2ccccc21" ; wanted: its growth
Out: 43.2

In: Field request: growth | item: N#CC1=C(N)Oc2c(sc3c(F)cccc23)C1c1ccc(Cl)cc1 (configuration not stated)
Out: 31

In: Look up growth: "O=C1c2cccc3cccc(c23)C(=O)N1CC#Cc1ccc2c3c(cccc13)C(=O)N(CCO)C2=O"
Out: 92.4

In: Look up growth for this compound: "COc1ccc(/C=C(\C#N)c2cc3ccccc3n2S(C)(=O)=O)cc1"
Out: 112
